system: anti-estriol-3-sulfate antibody immobilized on Sepharose 4B; assay: Cross-reaction of various steroids in the radioimmunoassay (50% inhibition of labeled estriol-3-sulfate binding); design: species or system guinea pig; conditions: mass ratio of non-labeled estriol-3-sulfate to each steroid required for 50% inhibition of labeled estriol-3-sulfate binding
Structures can show the parent of a compound that is named as a salt.
Entries and their Cross-reaction (%)
test readout: Cross-reaction (%)

compound	unit info	inequality operator	test value
C[C@]12CC[C@@H]3c4ccc(O)cc4CC[C@H]3[C@@H]1CC[C@@H]2O[C@@H]1O[C@H](C(=O)O)[C@@H](O)[C@H](O)[C@H]1O [Estradiol-17-glucuronide]	%	<	0.001
C[C@]12CC[C@@H](O)C[C@@H]1CC[C@@H]1[C@@H]2CC[C@]2(C)C(=O)CC[C@@H]12	%	<	0.001
C[C@]12CC[C@@H]3c4ccc(OS(=O)(=O)O)cc4CC[C@H]3[C@@H]1C[C@@H](O)[C@@H]2O [Estriol-3-sulfate]	%	=	100
C[C@]12C[C@H](O)[C@H]3[C@@H](CCC4=CC(=O)CC[C@@]43C)[C@@H]1CC[C@@H]2C(=O)CO	%	<	0.001
CC(C)CCC[C@@H](C)[C@H]1CC[C@H]2[C@@H]3CC=C4C[C@@H](OS(=O)(=O)O)CC[C@]4(C)[C@H]3CC[C@]12C [Cholesterol sulfate]	%	=	0.081
